biological target: GST-KIAA0147 PDZ domain 1 (Homo sapiens (Human)), Q14160; experiment: G' assay; note: key of the grades not given here
Sequence (Q14160 other isoform, or with tags, fused parts or gaps): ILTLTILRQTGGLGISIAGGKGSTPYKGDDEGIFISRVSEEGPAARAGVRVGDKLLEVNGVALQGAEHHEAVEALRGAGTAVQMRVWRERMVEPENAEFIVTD

{"columns": ["binder", "value.unit", "Classification"],
 "data": [
  ["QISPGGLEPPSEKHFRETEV (modifications not checked) [TAX]", "A450 class", 5],
  ["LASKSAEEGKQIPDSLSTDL (modifications not checked) [DOCK2]", "A450 class", 1],
  ["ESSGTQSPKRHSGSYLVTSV (modifications not checked) [APC-adenomatous polyposis coli protein]", "A450 class", 1],
  ["PYQSQGFSTEEDEDEQVSAV (modifications not checked) [RA-GEF (ras/rap1A-assoc-GEF)]", "A450 class", 1],
  ["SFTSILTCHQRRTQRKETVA (modifications not checked) [GluR5-2 (rat)]", "A450 class", 2],
  ["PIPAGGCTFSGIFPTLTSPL (modifications not checked) [KIA 1481]", "A450 class", 2],
  ["GGGGGSGGGGGSGIESVKI (modifications not checked) [GLUR2 (glutamate receptor 2-modified)]", "A450 class", 1],
  ["AWDDSARAAGGQGLHVTAL (modifications not checked) [LPAP]", "A450 class", 3],
  ["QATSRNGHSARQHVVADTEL (modifications not checked) [CD34]", "A450 class", 1],
  ["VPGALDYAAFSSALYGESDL (modifications not checked) [a-actinin 2]", "A450 class", 2],
  ["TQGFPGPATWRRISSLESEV (modifications not checked) [NMDA Glutamate Receptor 2C (cysteine-free)]", "A450 class", 5]
]}
